Each item that follows carries a reported DILI positive/negative.
Test system: Hepatotoxicity;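 note: binary label assigned from drug-induced liver injury observed in pharmaceutical company records, forming the validation set for the DILIps prediction system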
RESULT_TYPE: DILI positive/negative

CCN1CCN(C(=O)N[C@@H](C(=O)N[C@@H]2C(=O)N3C(C(=O)O)=C(CSc4nnnn4C)CS[C@H]23)c2ccc(O)cc2)C(=O)C1=O.O.O [CEFOPERAZONE DIHYDRATE]
0
O=C1OCCN1/N=C/c1ccc([N+](=O)[O-])o1
1
CC1(C)S[C@@H]2[C@H](NC(=O)[C@H](NC(=O)N3CCNC3=O)c3ccccc3)C(=O)N2[C@H]1C(=O)[O-].[Na+] [AZLOCILLIN SODIUM]
0
CCCCNc1ccc(C(=O)OCCN(C)C)cc1.Cl [TETRACAINE HYDROCHLORIDE]
0
CN[C@@H](C)[C@@H](O)c1ccccc1.Cl [PSEUDOEPHEDRINE HYDROCHLORIDE]
0
CC(C)(Sc1cc(C(C)(C)C)c(O)c(C(C)(C)C)c1)Sc1cc(C(C)(C)C)c(O)c(C(C)(C)C)c1
0
CN1Cc2c(N)cccc2C(c2ccccc2)C1 (configuration not stated)
1
CO[C@H]1C[C@H](O[C@H]2[C@H](C)[C@@H](O[C@@H]3O[C@H](C)C[C@H](N(C)C)[C@H]3OC(C)=O)[C@@H](C)C[C@@]3(CO3)C(=O)[C@H](C)[C@@H](OC(C)=O)[C@@H](C)[C@@H](C)OC(=O)[C@@H]2C)O[C@@H](C)[C@@H]1OC(C)=O
1
Cc1nc(C)c2c(n1)N(Cc1ccc(-c3ccccc3-c3nnn[nH]3)cc1)C(=O)CC2
1
C#C[C@]1(OC(C)=O)CC[C@H]2[C@@H]3CCC4=C[C@@H](OC(C)=O)CC[C@@H]4[C@H]3CC[C@@]21C [ETHYNODIOL DIACETATE]
1
CNC(=O)Oc1ccc2c(c1)[C@]1(C)CCN(C)[C@@H]1N2C
0
CN1C(=O)OC(C)(C)C1=O
1
CC(C)COCC(CN(Cc1ccccc1)c1ccccc1)N1CCCC1.Cl.O (configuration not stated) [BEPRIDIL HYDROCHLORIDE]
1
COC(=O)C1=C(C)NC(C)=C(C(=O)OCC(C)C)C1c1ccccc1[N+](=O)[O-] (configuration not stated)
0
CN(CCCCCCCCCCN(C)C(=O)Oc1cccc([N+](C)(C)C)c1)C(=O)Oc1cccc([N+](C)(C)C)c1.[Br-].[Br-] [DEMECARIUM BROMIDE]
1
O=C(O)COc1ccc(C(=O)c2cccs2)c(Cl)c1Cl
1
CC1(c2ccccc2)Cc2cc(OCC(=O)O)c(Cl)c(Cl)c2C1=O (configuration not stated)
1
CN(C)CCC(c1ccc(Br)cc1)c1ccccn1.O=C(O)/C=C\C(=O)O (configuration not stated) [BROMPHENIRAMINE MALEATE]
0
CC1CN(c2cc3c(cc2F)c(=O)c(C(=O)O)cn3-c2ccc(F)cc2F)CCN1 (configuration not stated)
1
CC(C)(Oc1ccc(C2CC2(Cl)Cl)cc1)C(=O)O (configuration not stated) [CIPROFIBRATE]
1
CN(C)CCn1nnnc1SCC1=C(C(=O)O)N2C(=O)[C@@H](NC(=O)Cc3csc(N)n3)[C@H]2SC1.Cl.Cl [CEFOTIAM HYDROCHLORIDE]
1
O=C1NC(=O)C(O)(O)C(=O)N1
0
CC1(COc2ccc(CC3SC(=O)NC3=O)cc2)CCCCC1 (configuration not stated)
1
C1CCC(C(CC2CCCCN2)C2CCCCC2)CC1 (configuration not stated)
1
CN1CCN(C(c2ccccc2)c2ccccc2)CC1
1
CC(C)(C)c1ccc(C(O)CCCN2CCC(C(O)(c3ccccc3)c3ccccc3)CC2)cc1 (configuration not stated)
0
C=C1CC[C@H](O)C/C1=C/C=C1\CCC[C@]2(C)[C@@H]([C@H](C)CCCC(C)(C)O)CC[C@@H]12.O
1
N[C@H](C(=O)O)[C@@H]1CC(Cl)=NO1
0
COc1cc(C(=O)NCc2ccc(OCCN(C)C)cc2)cc(OC)c1OC.Cl [TRIMETHOBENZAMIDE HYDROCHLORIDE]
1
Cc1ccc2cc3c(ccc4ccccc43)c3c2c1CC3
1
O=c1[nH]c(=O)n([C@H]2C[C@H](O)[C@@H](CO)O2)cc1F
1
COc1cc(CNC(=O)CCCC/C=C/C(C)C)ccc1O
0
